Molecular target: Relaxin receptor 1 (Homo sapiens)
Assay: qHTS Assay for Agonists of the Relaxin Receptor RXFP1: THP1 Hit Validation; further: nearly all actives have a fitted effect of over 60% in size;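 on activation: 0% = buffer alone basal and 100% = 29 nM porcine relaxin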
Conditions: THP1-RXFP1 cells, cAMP TR-FRET, 30 min; series mostly up to 115 µM
Results filed as inconclusive are left out. Calls of active or inactive are those of the source. The call rests on the fitted dose curve; in most records, active means well fitted activation curve with a large enough effect; inconclusive means small, poorly fitted or top-dose-only effect; inactive means no such curve, though single readings can be large or run the other way.
Log the outcome using a class from yes (1) for active, no (0) for inactive

1) O=C(O)c1ccc(CN2C(=O)c3ccc(C(=O)O)cc3C2=O)cc1; no (0)
2) COc1ccc(S(=O)(=O)N2CCOCC2)cc1NC(=O)CSc1nnc2ccccn12; yes (1)
3) O=C(OCc1nc2ccsc2c(=O)[nH]1)c1cccc(S(=O)(=O)N2CCOCC2)c1; yes (1)
4) COc1ccc(/C=C2/SC(=O)N(CCC(=O)Nc3ccc(C)cc3)C2=O)cc1OC; no (0)
5) COc1ccc(C(C)=O)cc1Cn1cnc2c(cnn2C)c1=O; yes (1)
6) Cc1cc2nc3ccc(=[N+](C)C)cc-3sc2cc1N; no (0)
7) CCN(CC)c1ccc(S(=O)(=O)N2CCOCC2)cc1NC(=O)CSc1nncn1C; yes (1)
8) COc1ccc(CC(=O)N/N=C/c2cccnc2)cc1OC; no (0)
9) CC(C(=O)OCC(=O)N(C)C1(C#N)CCCCC1)N1C(=O)c2ccccc2C1=O (stereo not drawn); yes (1)
10) C=CCSc1nc2c(c(=O)[nH]1)C(C(C)C)C(C#N)=C(N)O2 (stereo not drawn); no (0)

[in] So what was the verdict on CC1(C(=O)Nc2nc3ccccc3s2)CC1(Br)Br (stereo not drawn) in this test?
[out] no (0)
